From: PubChem BioAssay (NCI)

# Tested on: OVCAR-8 ovarian
# Protocol details: NCI tumour cell line growth inhibition, 48 h
Where a SMILES comes first, the peptide text is derived from it. [ ]: non-standard residue; d: D form. Ac5c = NC1(C(=O)O)CCCC1
In this section, each of the compounds is paired with its reported TGI.

Compound | Assayed target | TGI
COc1cc2c(cc1OCc1ccccc1)N=CC1C[C@@H](O)CN1C2=O (some centres not stated) | OVCAR-8 ovarian | > 74.8 µM
COC(=O)C1(NC(=O)C(C)NC(=O)C(CCCCN)NC(=O)C(CC(C)C)NC(C)=O)CCCC1 (configuration not stated) (Ac-LKA[Ac5c]-OMe; configuration not given here) | OVCAR-8 ovarian | > 100 µM
ClCCn1cnc2c(SCc3ccccc3Cl)ncnc21 | OVCAR-8 ovarian | > 90.5 µM
CCc1cccc(C)c1NC(=O)CC(=O)NNC(N)=S | OVCAR-8 ovarian | > 100 µM
O=C1N[C@@H]2[C@@H](O)[C@@H](O)[C@H](O)C[C@H]2c2cc3c(c(O)c21)OCO3 | OVCAR-8 ovarian | 1.39 µM
Cc1cc(C)n(C(=O)CSc2nc3ccc(I)cc3c(=O)n2Cc2ccccc2)n1 | OVCAR-8 ovarian | 70.3 µM
NC1=NS(=O)(=O)Nc2nc(-c3ccc(Cl)cc3)[nH]c21 | OVCAR-8 ovarian | > 100 µM
O=C(Nc1ccc(Cl)cc1)c1cc2c(cc1Cl)Sc1nccn1S2(=O)=O | OVCAR-8 ovarian | > 100 µM
O=S(=O)(Nc1ccc(Cl)cc1)c1ccc(-c2cnc(C3CC3)o2)cc1 | OVCAR-8 ovarian | 22.4 µM
c1ccc2c(CC3NCCN3)cccc2c1 | OVCAR-8 ovarian | > 100 µM
O=C(N/N=C/c1c(Cl)cccc1Cl)c1cccnc1Nc1cccc(C(F)(F)F)c1 | OVCAR-8 ovarian | > 100 µM
Oc1cccc(-c2nc(-c3n[nH]c(=S)n3-c3ccccc3)cc3c2[nH]c2ccccc23)c1 | OVCAR-8 ovarian | 8.83 µM
N#CC1=C(N)Oc2c(ccc3ccccc23)C1c1cccs1 (configuration not stated) | OVCAR-8 ovarian | 12.1 µM
C=CCc1cccc2cc(C(N)=O)c(=N)oc12 | OVCAR-8 ovarian | > 100 µM
CC(=O)OCCOCn1c2c(c(=O)[nH]c1=O)CCC2 | OVCAR-8 ovarian | > 100 µM
CC(=O)N1C(Nc2cnc3ccccc3c2)CCN1c1ccccc1 (configuration not stated) | OVCAR-8 ovarian | > 10 µM
[N-]=[N+]=Nc1c(N2CCOCC2)c(Cl)nc2ccccc12 | OVCAR-8 ovarian | > 100 µM

* * *

# System: TK-10 renal
# Protocol details: NCI tumour cell line growth inhibition, 48 h
In this section, each of the compounds is paired with its reported TGI.

Compound | TGI
O=C(/C=C/c1ccc(Br)cc1)c1ccc(NCc2nc3ccccc3[nH]2)cc1 | > 55.3 µM
COc1ccc(C(O)c2cc(OC)c(OC)c(OC)c2)cc1 (stereo unspecified) | > 100 µM
CC(C)(CN1CCCCC1)C(=O)/C=C/c1ccc(Cl)c(Cl)c1 | 2.8 µM
Cc1cc(C)n(C(=O)CSc2nc3ccc(I)cc3c(=O)n2Cc2ccccc2)n1 | > 100 µM
Cc1ccc(Cl)cc1-c1nc(N)nc(Nc2ccc(Br)cc2)n1 | > 100 µM
NC(=O)NN/C=C(/C=Nc1ccccc1)[N+](=O)[O-] | > 100 µM
O=c1[nH]c2[nH]c(-c3ccc(Br)cc3)cc2c2ccccc12 | > 100 µM
C=CC(=O)N1C[C@H](COc2nc(Nc3cnn(C)c3)nc3[nH]cc(Cl)c23)[C@@H](OC)C1 | 10.6 µM
O=CN/N=C/c1ccc(Cl)c([N+](=O)[O-])c1 | 71.3 µM
COc1cc2c(cc1OCc1ccccc1)N=CC1C[C@@H](O)CN1C2=O (stereo partly specified) | 12.7 µM
O=C(CCc1ccc(O)c(O)c1)OCCc1ccccc1 | > 100 µM
